- measurement.target: hGLP1 receptor (Homo sapiens, UniProt P43220)
- Construct: expressed in transfected cells; host or cells: HEK (human embryonic kidney) cells co-expressing hGLP1 receptor and CRE-Luciferase
- Sequence (P43220 24-463): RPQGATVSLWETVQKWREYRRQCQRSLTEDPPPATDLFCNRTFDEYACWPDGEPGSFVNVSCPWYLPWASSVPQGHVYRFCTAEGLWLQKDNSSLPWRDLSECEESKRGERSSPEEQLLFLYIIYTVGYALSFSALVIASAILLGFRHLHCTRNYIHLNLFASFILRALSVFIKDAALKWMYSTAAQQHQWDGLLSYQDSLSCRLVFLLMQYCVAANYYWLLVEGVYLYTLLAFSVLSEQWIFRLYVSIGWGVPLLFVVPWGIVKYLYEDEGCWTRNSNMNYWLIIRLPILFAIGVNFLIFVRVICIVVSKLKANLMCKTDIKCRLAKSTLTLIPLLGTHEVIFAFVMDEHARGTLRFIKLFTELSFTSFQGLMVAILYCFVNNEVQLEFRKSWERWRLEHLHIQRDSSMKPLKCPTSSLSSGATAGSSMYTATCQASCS
- assay.details: GLP-1 receptor agonism assay (HTRF cAMP, HEK cells co-expressing hGLP1 receptor and CRE-Luciferase)
- Format: cell-based
- condition.set: Table 1, Phe6 modifications, 0% HSA; average of two independent experiments in triplicate (RXL-3039 tested once); read-out: cAMP EC50
- Method: Human embryonic kidney cells (HEK) co-expressing the hGLP1 receptor and CRE-Luciferase construct were used to determine agonist potency in this assay. […] The optimal cell density was determined to be 1000 cells/well. […] The agonist assay was a homogeneous time-resolved fluorescence (HTRF) assay (Cisbio). […] The wells were incubated for 1 h at room temperature, and fluorescence was then read at 665 and 615 nm with an Envision reader with a TRF laser. […]
readout: pEC50
FYI, pEC50 means -log10 of a concentration in mol per litre.

INSERT INTO measurements (compound, readout, result) VALUES
  ('C[C@@H](O)[C@H](NC(=O)CNC(=O)[C@H](CCC(=O)O)NC(=O)C(C)(C)NC(=O)[C@@H](N)Cc1c[nH]cn1)C(=O)N[C@@H](Cc1ccccc1)C(=O)N[C@H](C(=O)N[C@@H](CO)C(=O)N[C@@H](CC(=O)O)C(=O)N[C@@H](Cc1ccc(-c2ccccc2)cc1)C(=O)N[C@@H](Cc1ccc(-c2ccccc2)cc1)C(N)=O)[C@@H](C)O [RXL-100]', 'pEC50', 9.30);

Proceed to the following item.
Look at this compound and give its reported pEC50. C[C@@H](O)[C@H](NC(=O)CNC(=O)[C@H](CCC(=O)O)NC(=O)C(C)(C)NC(=O)[C@@H](N)Cc1c[nH]cn1)C(=O)N[C@@H](Cc1cc(F)c(F)c(F)c1)C(=O)N[C@H](C(=O)N[C@@H](CO)C(=O)N[C@@H](CC(=O)O)C(=O)N[C@@H](Cc1ccc(-c2ccccc2)cc1)C(=O)N[C@@H](Cc1ccc(-c2ccccc2)cc1)C(N)=O)[C@@H](C)O [RXL-3017]
8.14

* * *

- measurement.target: hGLP1 receptor (Homo sapiens, UniProt P43220)
- Construct: expressed in transfected cells; host or cells: HEK (human embryonic kidney) cells co-expressing hGLP1 receptor and CRE-Luciferase
- assay.details: GLP-1 receptor agonism assay (HTRF cAMP, HEK cells co-expressing hGLP1 receptor and CRE-Luciferase)
- Assay type: cell-based
- condition.set: dpEC50 = pEC50 (Aib) − pEC50 (Ala) − 0.97; Aib peptide versus the Ala peptide of the same line; 0% HSA
Square brackets hold non-standard residues; d marks the D form. Peptide text beside a SMILES is read from it. Bip = N[C@@H](Cc1ccc(-c2ccccc2)cc1)C(=O)O; αMePhe(2-F) = C[C@](N)(Cc1ccccc1F)C(=O)O; Aib = CC(C)(N)C(=O)O
readout: dpEC50 (contribution of Cα-methylation)
In your answer, state the number alone without any accompanying words.

# example entries with known answers
INSERT INTO results (compound, readout, result) VALUES
  ('C[C@@H](O)[C@H](NC(=O)CNC(=O)[C@H](CCC(=O)O)NC(=O)C(C)(C)NC(=O)[C@@H](N)Cc1c[nH]cn1)C(=O)N[C@@](C)(Cc1ccccc1F)C(=O)N[C@H](C(=O)N[C@@H](CO)C(=O)N[C@@H](CC(=O)O)C(=O)N[C@@H](Cc1ccc(-c2ccccc2)cc1)C(=O)NC(C)(C)C(N)=O)[C@@H](C)O [RXL-3052] (H-H[Aib]EGT[αMePhe(2-F)]TSD[Bip][Aib]-NH2)', 'dpEC50 (contribution of Cα-methylation)', 1.11),
  ('C[C@@H](O)[C@H](NC(=O)C(C)(C)NC(=O)[C@H](CCC(=O)O)NC(=O)C(C)(C)NC(=O)[C@@H](N)Cc1c[nH]cn1)C(=O)N[C@@](C)(Cc1ccccc1F)C(=O)N[C@H](C(=O)N[C@@H](CO)C(=O)N[C@@H](CC(=O)O)C(=O)N[C@@H](Cc1ccc(-c2ccccc2)cc1)C(=O)N[C@@H](Cc1ccc(-c2ccccc2)cc1)C(N)=O)[C@@H](C)O [RXL-3032] (H-H[Aib]E[Aib]T[αMePhe(2-F)]TSD[Bip][Bip]-NH2)', 'dpEC50 (contribution of Cα-methylation)', 0.37),
  ('C[C@@H](O)[C@H](NC(=O)CNC(=O)[C@H](CCC(=O)O)NC(=O)C(C)(C)NC(=O)[C@@H](N)Cc1c[nH]cn1)C(=O)N[C@@](C)(Cc1ccccc1F)C(=O)N[C@H](C(=O)N[C@@H](CO)C(=O)NC(C)(C)C(=O)N[C@@H](Cc1ccc(-c2ccccc2)cc1)C(=O)N[C@@H](Cc1ccc(-c2ccccc2)cc1)C(N)=O)[C@@H](C)O [RXL-3036] (H-H[Aib]EGT[αMePhe(2-F)]TS[Aib][Bip][Bip]-NH2)', 'dpEC50 (contribution of Cα-methylation)', '−2.26');

So what's the measured dpEC50 (contribution of Cα-methylation) for this one? C[C@@H](O)[C@H](NC(=O)CNC(=O)C(C)(C)NC(=O)C(C)(C)NC(=O)[C@@H](N)Cc1c[nH]cn1)C(=O)N[C@@](C)(Cc1ccccc1F)C(=O)N[C@H](C(=O)N[C@@H](CO)C(=O)N[C@@H](CC(=O)O)C(=O)N[C@@H](Cc1ccc(-c2ccccc2)cc1)C(=O)N[C@@H](Cc1ccc(-c2ccccc2)cc1)C(N)=O)[C@@H](C)O [RXL-3031] (H-H[Aib][Aib]GT[αMePhe(2-F)]TSD[Bip][Bip]-NH2)
−1.13

Item C[C@@H](O)[C@H](NC(=O)CNC(=O)[C@H](CCC(=O)O)NC(=O)C(C)(C)NC(=O)[C@@H](N)Cc1c[nH]cn1)C(=O)NC(C)(C)C(=O)N[C@H](C(=O)N[C@@H](CO)C(=O)N[C@@H](CC(=O)O)C(=O)N[C@@H](Cc1ccc(-c2ccccc2)cc1)C(=O)N[C@@H](Cc1ccc(-c2ccccc2)cc1)C(N)=O)[C@@H](C)O [RXL-3028] (H-H[Aib]EGT[Aib]TSD[Bip][Bip]-NH2) has what recorded dpEC50 (contribution of Cα-methylation)?
0.46

Which dpEC50 (contribution of Cα-methylation) value is on record for C[C@@H](O)[C@H](NC(=O)CNC(=O)[C@H](CCC(=O)O)NC(=O)C(C)(C)NC(=O)C(C)(C)N)C(=O)N[C@@](C)(Cc1ccccc1F)C(=O)N[C@H](C(=O)N[C@@H](CO)C(=O)N[C@@H](CC(=O)O)C(=O)N[C@@H](Cc1ccc(-c2ccccc2)cc1)C(=O)N[C@@H](Cc1ccc(-c2ccccc2)cc1)C(N)=O)[C@@H](C)O [RXL-3030] (H-[Aib][Aib]EGT[αMePhe(2-F)]TSD[Bip][Bip]-NH2) ?
−0.26

Entry C[C@@H](O)[C@H](NC(=O)CNC(=O)[C@H](CCC(=O)O)NC(=O)C(C)(C)NC(=O)[C@@H](N)Cc1c[nH]cn1)C(=O)N[C@@](C)(Cc1ccccc1F)C(=O)N[C@H](C(=O)NC(C)(C)C(=O)N[C@@H](CC(=O)O)C(=O)N[C@@H](Cc1ccc(-c2ccccc2)cc1)C(=O)N[C@@H](Cc1ccc(-c2ccccc2)cc1)C(N)=O)[C@@H](C)O [RXL-3035] (H-H[Aib]EGT[αMePhe(2-F)]T[Aib]D[Bip][Bip]-NH2) : reported dpEC50 (contribution of Cα-methylation) = ?
−2.80

Name the reported dpEC50 (contribution of Cα-methylation) value associated with the compound C[C@@H](O)[C@H](NC(=O)CNC(=O)[C@H](CCC(=O)O)NC(=O)C(C)(C)NC(=O)[C@@H](N)Cc1c[nH]cn1)C(=O)N[C@@](C)(Cc1ccccc1F)C(=O)N[C@H](C(=O)N[C@@H](CO)C(=O)N[C@@H](CC(=O)O)C(=O)NC(C)(C)C(=O)N[C@@H](Cc1ccc(-c2ccccc2)cc1)C(N)=O)[C@@H](C)O [RXL-3051] (H-H[Aib]EGT[αMePhe(2-F)]TSD[Aib][Bip]-NH2)
−1.34

Please look up its dpEC50 (contribution of Cα-methylation): C[C@@H](O)[C@H](NC(=O)CNC(=O)[C@H](CCC(=O)O)NC(=O)C(C)(C)NC(=O)[C@@H](N)Cc1c[nH]cn1)C(=O)N[C@@](C)(Cc1ccccc1F)C(=O)NC(C)(C)C(=O)N[C@@H](CO)C(=O)N[C@@H](CC(=O)O)C(=O)N[C@@H](Cc1ccc(-c2ccccc2)cc1)C(=O)N[C@@H](Cc1ccc(-c2ccccc2)cc1)C(N)=O [RXL-3034] (H-H[Aib]EGT[αMePhe(2-F)][Aib]SD[Bip][Bip]-NH2)
−1.60

Requested read-out: dpEC50 (contribution of Cα-methylation). Entry: C[C@@H](O)[C@H](NC(=O)[C@](C)(Cc1ccccc1F)NC(=O)C(C)(C)NC(=O)CNC(=O)[C@H](CCC(=O)O)NC(=O)C(C)(C)NC(=O)[C@@H](N)Cc1c[nH]cn1)C(=O)N[C@@H](CO)C(=O)N[C@@H](CC(=O)O)C(=O)N[C@@H](Cc1ccc(-c2ccccc2)cc1)C(=O)N[C@@H](Cc1ccc(-c2ccccc2)cc1)C(N)=O [RXL-3033] (H-H[Aib]EG[Aib][αMePhe(2-F)]TSD[Bip][Bip]-NH2)
−1.00

These measurements were taken from paper PMC11721672.
